Test system: HOP-92 NSCLC
Assay: NCI tumour cell line growth inhibition, 48 h
Recorded TGI, one value per entry.
measured-quantity: TGI

{"compound": "O=C(O)CN(c1ccccc1)S(=O)(=O)c1ccc(NC(=O)c2ccccc2)cc1", "reported": "> 100 µM"}
{"compound": "[O-]/[N+](=C\\c1ccccc1)[C@H](COCc1ccccc1)c1ccccc1", "reported": "92.7 µM"}
{"compound": "O=C(O)CSCc1cccc2ccccc12", "reported": "> 100 µM"}
{"compound": "C1=C\\SS/C=C\\SS/C=C\\SS/C=C\\SS/1", "reported": "> 100 µM"}
{"compound": "C=CC(=O)Nc1ccc(Nc2nccc(-c3ccc(N4CCCC4)c(C#N)c3)n2)cc1", "reported": "> 25 µM"}
{"compound": "O=C1OC(=O)c2c1c(-c1ccccc1)cn2-c1ccc(Cl)cc1", "reported": "> 100 µM"}
{"compound": "O=C1c2ccccc2C2CNC1(O)c1ccccc12 (stereo unspecified)", "reported": "> 100 µM"}
{"compound": "CC1=CCC[C@@]2(C)C(CC[C@@H]2C(C)/C=C/C(C)C)c2ccc(cc2C(=O)O)C[C@@H](O)CC1 (stereo partly specified)", "reported": "28.9 µM"}
{"compound": "O=C(CSCC(=O)N/N=C/c1cc(I)cc(I)c1O)N/N=C/c1cc(I)cc(I)c1O", "reported": "> 100 µM"}
{"compound": "FC(F)(F)c1ccc(-c2nc(-c3nc4cc(Cl)c(Cl)cc4[nH]3)c3ccccn23)cc1", "reported": "28.7 µM"}
{"compound": "O=C(c1ccc2ccccc2c1O)N1CCCCC1", "reported": "> 100 µM"}
{"compound": "Cc1c2cc[nH]c(=O)c2c(C)c2c1[nH]c1cc(OCCN3CCN(C)CC3)ccc12", "reported": "5.46 µM"}
{"compound": "Clc1ccc(-c2ccc(-c3nnc(CCc4nnc(-c5ccc(-c6ccc(Cl)cc6)o5)o4)o3)o2)cc1", "reported": "> 64.1 µM"}
{"compound": "CN(C)CCCOc1ccccc1NC1=C(Cl)C(=O)C(Nc2ccccc2OCCCN(C)C)=C(Cl)C1=O", "reported": "2.82 µM"}
{"compound": "Cc1nc2sccn2c1/C=C1/C(=O)Nc2ccccc21", "reported": "> 100 µM"}
{"compound": "CN(C)CC(/C(Cc1ccccc1)=N\\NC(=O)C[n+]1ccccc1)c1ccccc1 (stereo unspecified)", "reported": "> 100 µM"}
{"compound": "CC/C(Cc1ccccc1)=C(\\c1ccc(OCCN2CCCCCC2)cc1)c1ccc(OC(=O)NCc2ccccc2)cc1", "reported": "9.93 µM"}
{"compound": "FC(F)(F)C1(Cl)C(c2ccccc2)=C1c1ccccc1", "reported": "28.4 µM"}
{"compound": "C=C(C)[C@@H]1CC[C@]2(C(=O)O)CC[C@]3(C)[C@H](CC[C@@H]4[C@@]5(C)CC(=O)C(C)(C)[C@@H]5CC[C@]43C)[C@@H]12", "reported": "> 25 µM"}
{"compound": "CO[C@H](C(=O)[C@@H](O)[C@@H](C)O)[C@@H]1Cc2cc3cc(O[C@H]4C[C@@H](O[C@H]5C[C@@H](O)[C@H](O)C(C)O5)[C@H](O)C(C)O4)c(C)c(O)c3c(O)c2C(=O)[C@H]1O[C@H]1C[C@@H](O[C@H]2C[C@@H](O[C@H]3C[C@@H](OC)[C@H](O)C(C)O3)[C@@H](O)C(C)O2)C(O)(O)C(C)O1 (stereo partly specified)", "reported": "> 6.49 µM"}
{"compound": "CN(C)CCNc1ccc(C(=O)NCCCN(C)CCCNC(=O)c2ccc(NCCN(C)C)c3c(=O)c4ccccc4[nH]c23)c2[nH]c3ccccc3c(=O)c12", "reported": "0.616 µM"}
